target: Torsin-1A (Homo sapiens) (UniProt O14656); experiment: small-molecule binders of mutant TOR1A in lysate, primary screen, cell lysate, small-molecule microarray, COS7 lysate, 635/667 nm fluorescence (AID 1150); conditions: COS7 hTOR1A mutant lysate, 635 nm fluorescence, higher = more signal;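 further: score pools 667 nm emission and signal to noise measuring lysate protein binding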
Sequence (O14656 whole entry, looked up): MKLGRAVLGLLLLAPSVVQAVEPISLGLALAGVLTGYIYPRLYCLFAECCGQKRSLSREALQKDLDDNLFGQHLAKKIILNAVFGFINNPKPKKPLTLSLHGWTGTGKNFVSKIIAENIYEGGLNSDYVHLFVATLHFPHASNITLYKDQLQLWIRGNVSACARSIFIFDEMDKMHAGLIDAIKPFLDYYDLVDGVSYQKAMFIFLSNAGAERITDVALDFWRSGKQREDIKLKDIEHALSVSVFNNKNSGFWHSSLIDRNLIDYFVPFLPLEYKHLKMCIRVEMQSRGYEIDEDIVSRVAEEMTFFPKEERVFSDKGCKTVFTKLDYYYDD
// composite z-score lookup, one value per entry
// return a plain number; no unit text

compound	composite z-score
COCCOC(=O)N1C(=O)[C@@]2(c3cc(C#CC4=CCCCC4)ccc31)[C@H](C(=O)N1CCc3cc(OC)c(OC)cc3C1)[C@H]1C(=O)O[C@H](c3ccccc3)[C@H](c3ccccc3)N1[C@@H]2c1ccccc1OCCO	0.274
COCCOC(=O)N1C(=O)[C@@]2(c3ccccc31)[C@H](C(=O)NC[C@H](O)c1ccccc1)[C@H]1C(=O)O[C@H](c3ccccc3)[C@H](c3ccccc3)N1[C@@H]2c1ccc(OCCO)cc1	0.857
COC(=O)[C@]1(Cc2ccccc2N=[N+]=[N-])N=C(c2ccc(OCCCO)cc2)O[C@@H]1c1ccccc1N=[N+]=[N-]	0.283
O=C1OCCC=C[C@H]2OC34C=CCN(Cc5ccccc5)C(=O)[C@H]3N(CCCO)C(=O)[C@@H]4C12 (stereo not given in full)	-0.586
CCOC(=O)C1=CCC(C(C)(C)C)N(S(=O)(=O)c2ccc(C)cc2)C1 (stereo not given)	1.67
O=C1N(CCS(=O)(=O)c2ccccc2)c2ccccc2C[C@@]12COC(c1ccc(OCCCO)cc1)=N2	0.967
C=CCOC(=O)[C@@H]1[C@H]2C(=O)O[C@H](c3ccccc3)[C@H](c3ccccc3)N2[C@H](c2ccc(OCCOC(=O)[C@@H]3C[C@@H]4C(=O)N[C@@H](Cc5ccccc5)C(=O)N4[C@@H]3c3cccc(OCCO)c3)cc2)[C@@]12C(=O)Nc1ccc(I)cc12	0.731
O=C(OCCF)C1=CCC(c2cccc(Cl)c2)O1 (stereo not given)	2.19

Task item: What does the record list as composite z-score for O=C1O[C@@H](c2ccccc2)[C@@H](c2ccccc2)N2[C@@H](c3ccc(O)cc3)[C@]3(C(=O)Nc4ccc(C#CC5(O)CCCCCC5)cc43)[C@@H](C(=O)N3CCCCCCC3)[C@H]12 ?
Reply: 2.35

Task item: Looking for the measured composite z-score of COC(=O)[C@@]1(Cc2ccc(OC)cc2)[C@H]2c3cc(C(=O)N4CCCC4)n(CCc4c[nH]c5cc(F)ccc45)c3C[C@H]2CN1C(=O)c1ccccc1 , can you help?
Reply: 1.25

Task item: What composite z-score value was documented for this compound, COC(=O)[C@@]1(Cc2ccc(OC)cc2)[C@H]2c3cc(C(=O)N(C)C)n(Cc4c(OC)[nH]cc(C)c4=O)c3C[C@H]2CN1C(=O)c1ccccc1 ?
Reply: 1.16

Task item: Using the record for O=C1N(CCS(=O)(=O)c2ccccc2)Cc2ccccc2C[C@]12N=C(c1ccc(OCCCO)cc1)O[C@@H]2c1ccccc1 , report its composite z-score.
Reply: 1.02

Task item: Look at this compound and give its reported composite z-score. CC(C)OC(=O)CC(=O)CC(O)c1ccc(C#N)cc1 (stereo not given)
Reply: 2

Task item: Which composite z-score value belongs to CCOC(=O)C1=CCC(c2ccc(C#N)cc2)N(S(=O)(=O)c2ccc(C)cc2)C1 (stereo not given) ?
Reply: 0.709

Task item: Please report the recorded composite z-score for N[C@@H](Cc1ccccc1)Cn1cc(-c2ccccc2)nn1 .
Reply: -0.0827

# credit: PubChem BioAssay
